tested on: pulmonary artery smooth muscle cells derived from patients with idiopathic pulmonary arterial hypertension (IPAH-PASMCs); test: ability to suppress the proliferation of pulmonary artery smooth muscle cells from patients with pulmonary hypertension (MTT assay); assay type: cell-based, human; settings: final concentration 5 μM, 48 hours, IPAH-PASMC line 1; 10% FBS control 1.40
metric: day 2/day 0 cell number ratio (MTT cell viability)

{"compound": "Cc1cc(Cl)c(O)c(C(=O)c2cc(Cl)c(Cl)[nH]2)c1O [CEL-3]", "reported_measurement": 0.81}
{"compound": "CCCCCCc1cc(Cl)c(O)c(C(=O)c2cc(Cl)c(Cl)[nH]2)c1O [CEL-1, celastramycin]", "reported_measurement": 0.52}
{"compound": "CCCCCCCCCCCCc1cc(Cl)c(O)c(C(=O)c2cc(Cl)c(Cl)[nH]2)c1O [CEL-8]", "reported_measurement": 0.47}
{"compound": "CCCCCCc1cc(C)c(O)c(C(=O)c2cc(Cl)c(Cl)[nH]2)c1O [CEL-10]", "reported_measurement": 0.48}
{"compound": "CCCCCCc1cc(Cl)c(O)c(C(=O)c2cc(Br)c(Br)[nH]2)c1O [CEL-13]", "reported_measurement": 0.51}
{"compound": "CCCCc1cc(Cl)c(O)c(C(=O)c2cc(Cl)c(Cl)[nH]2)c1O [CEL-4]", "reported_measurement": 0.53}
{"compound": "CCCCCCCc1cc(Cl)c(O)c(C(=O)c2cc(Cl)c(Cl)[nH]2)c1O [CEL-6]", "reported_measurement": 0.54}
{"compound": "CCCc1cc(Cl)c(O)c(C(=O)c2ccc(Br)[nH]2)c1O [CEL-14]", "reported_measurement": 0.88}
{"compound": "CCCCCc1cc(Cl)c(O)c(C(=O)c2cc(Cl)c(Cl)[nH]2)c1O [CEL-5]", "reported_measurement": 0.53}
{"compound": "CCCCCCc1cc(Cl)c(O)c(C(=O)c2c[nH]c(Cl)c2Cl)c1O [CEL-19]", "reported_measurement": 0.94}
{"compound": "CCCCCCCCc1cc(Cl)c(O)c(C(=O)c2cc(Cl)c(Cl)[nH]2)c1O [CEL-7]", "reported_measurement": 0.52}
{"compound": "CCCCCCc1cc(Br)c(O)c(C(=O)c2cc(Cl)c(Cl)[nH]2)c1O [CEL-15]", "reported_measurement": 0.54}
{"compound": "O=C(c1cc(Cl)c(Cl)[nH]1)c1c(O)ccc(Cl)c1O [CEL-2]", "reported_measurement": 0.87}
